# experiment.summary: Cmax in male ICR mouse at 1 mg/kg, iv measured after 24 hrs by LC-MS/MS analysis
# Format: ADME, organism-based
# test.settings: in vivo

{"molecule.smiles": "COc1cccc(-c2cc(N3CCCc4ccccc4C3)nc(N)n2)c1", "Cmax": "0.389 µg/mL"}

###

# experiment.summary: Drug concentration in male ICR mouse plasma at 10 mg/kg, ip measured after 0.25 hrs by LC-MS/MS analysis
# Assay type: ADME, organism-based

{"molecule.smiles": "COc1cccc(-c2cc(N3CCCc4ccccc4C3)nc(N)n2)c1", "concentration at 0.25 h": "620 ng/mL"}

###

# experiment.summary: Drug concentration in male ICR mouse plasma at 20 mg/kg, po measured after 0.5 hrs by LC-MS/MS analysis
# Assay type: ADME, organism-based

{"molecule.smiles": "COc1cccc(-c2cc(N3CCCc4ccccc4C3)nc(N)n2)c1", "unit.spec": "ng/mL", "concentration at 0.5 h": 18.3}

###

# tested.system: Sodium channel protein type 2 subunit alpha (Homo sapiens, UniProt Q99250)
# Sequence (Q99250 whole entry, looked up): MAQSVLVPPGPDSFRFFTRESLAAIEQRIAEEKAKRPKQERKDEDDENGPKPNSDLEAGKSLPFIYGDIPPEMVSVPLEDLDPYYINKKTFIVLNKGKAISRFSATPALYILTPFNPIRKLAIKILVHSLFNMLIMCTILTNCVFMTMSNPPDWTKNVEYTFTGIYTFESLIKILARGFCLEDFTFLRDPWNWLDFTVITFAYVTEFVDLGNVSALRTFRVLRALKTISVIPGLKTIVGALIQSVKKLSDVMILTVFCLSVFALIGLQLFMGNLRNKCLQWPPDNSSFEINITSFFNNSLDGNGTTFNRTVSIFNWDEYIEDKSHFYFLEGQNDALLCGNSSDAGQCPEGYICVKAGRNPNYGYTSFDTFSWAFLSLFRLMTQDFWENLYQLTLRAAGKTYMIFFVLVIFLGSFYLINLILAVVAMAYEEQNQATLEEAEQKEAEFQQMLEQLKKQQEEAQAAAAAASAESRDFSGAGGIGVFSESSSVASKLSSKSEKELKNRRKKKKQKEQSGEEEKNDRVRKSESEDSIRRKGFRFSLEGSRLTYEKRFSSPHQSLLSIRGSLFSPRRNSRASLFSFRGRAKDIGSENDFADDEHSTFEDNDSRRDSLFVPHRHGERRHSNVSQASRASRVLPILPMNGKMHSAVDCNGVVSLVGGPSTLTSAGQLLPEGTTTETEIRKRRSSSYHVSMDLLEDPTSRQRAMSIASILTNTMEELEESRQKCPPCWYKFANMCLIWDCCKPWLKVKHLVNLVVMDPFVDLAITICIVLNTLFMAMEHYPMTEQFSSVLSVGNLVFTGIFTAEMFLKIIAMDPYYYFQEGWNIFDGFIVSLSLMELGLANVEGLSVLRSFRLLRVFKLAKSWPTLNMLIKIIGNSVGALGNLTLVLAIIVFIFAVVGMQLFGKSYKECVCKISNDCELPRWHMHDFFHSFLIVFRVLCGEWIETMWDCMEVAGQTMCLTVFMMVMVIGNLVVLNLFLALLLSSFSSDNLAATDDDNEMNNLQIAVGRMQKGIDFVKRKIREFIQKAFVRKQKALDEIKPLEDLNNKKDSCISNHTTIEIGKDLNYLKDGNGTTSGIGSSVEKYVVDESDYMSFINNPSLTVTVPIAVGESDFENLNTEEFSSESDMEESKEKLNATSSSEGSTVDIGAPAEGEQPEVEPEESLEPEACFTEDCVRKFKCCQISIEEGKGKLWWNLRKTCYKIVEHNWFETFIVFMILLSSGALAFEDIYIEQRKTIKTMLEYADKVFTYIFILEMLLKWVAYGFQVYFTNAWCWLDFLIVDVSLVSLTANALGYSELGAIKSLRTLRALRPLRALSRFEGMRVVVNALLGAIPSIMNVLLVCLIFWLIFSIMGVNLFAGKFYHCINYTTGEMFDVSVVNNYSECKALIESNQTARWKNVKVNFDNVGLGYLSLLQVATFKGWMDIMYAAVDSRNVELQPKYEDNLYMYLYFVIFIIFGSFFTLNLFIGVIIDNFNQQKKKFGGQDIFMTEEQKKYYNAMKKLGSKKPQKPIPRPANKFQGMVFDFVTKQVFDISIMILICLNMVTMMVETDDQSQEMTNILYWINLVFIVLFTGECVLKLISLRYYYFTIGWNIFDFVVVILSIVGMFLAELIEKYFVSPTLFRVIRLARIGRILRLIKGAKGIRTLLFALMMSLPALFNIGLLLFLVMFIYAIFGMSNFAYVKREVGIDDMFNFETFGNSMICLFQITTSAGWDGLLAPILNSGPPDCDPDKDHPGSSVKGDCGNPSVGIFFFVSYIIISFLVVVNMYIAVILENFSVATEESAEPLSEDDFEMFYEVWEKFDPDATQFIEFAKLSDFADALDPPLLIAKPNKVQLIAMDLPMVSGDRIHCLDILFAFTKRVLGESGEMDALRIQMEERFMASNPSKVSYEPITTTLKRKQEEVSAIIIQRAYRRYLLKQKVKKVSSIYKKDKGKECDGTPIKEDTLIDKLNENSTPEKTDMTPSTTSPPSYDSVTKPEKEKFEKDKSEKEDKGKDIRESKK
# experiment.summary: Inhibition of human Nav1.2 expressed in HEK293 cells assessed as test to control ratio at 10 uM measured after 5 mins by whole cell voltage clamp electrophysiological analysis
# Type: cell-based
readout: T/C

{"molecule": "COc1cccc(-c2cc(N3CC4CC(C3)c3ccccc34)nc(N)n2)c1", "result.number": 0.02}
{"molecule": "COc1cccc(-c2cc(N3CCC4(CCOCC4)C3)nc(N)n2)c1", "result.number": 0.57}
{"molecule": "CN1C[C@H](CNC(=O)OCc2ccccc2)C[C@@H]2c3cccc4c3c(cn4C)C[C@H]21", "result.number": 0.01}
{"molecule": "Nc1nc(-c2ccc3c(c2)CCO3)cc(N2CCCc3ccccc3C2)n1", "result.number": 0.07}
{"molecule": "COc1cccc(-c2cc(N3CCCc4ccc(C)cc4C3)nc(SC)n2)c1", "result.number": 0.66}
{"molecule": "Nc1nc(-c2ccc(Oc3ccccc3)cc2)cc(N2CCCc3ccccc3C2)n1", "result.number": 0.46}
{"molecule": "COc1cccc(-c2cc(N3CCCc4ccccc4C3)nc(N)n2)c1", "result.number": 0.02}
{"molecule": "COc1cccc(-c2cc(NCc3ccc(OC)c(OC)c3)nc(N)n2)c1", "result.number": 0.24}
{"molecule": "COc1cccc(-c2cc(N3CC4CC(C3)c3ccccc34)nc(NS(=O)(=O)c3cccc(C)c3)n2)c1", "result.number": 0.33}
{"molecule": "COc1cccc(-c2cc(N3CCCc4ccccc4C3)nc(NS(=O)(=O)c3ccc(Cl)cc3)n2)c1", "result.number": 0.65}
{"molecule": "CCCc1ccc(S(=O)(=O)Nc2nc(-c3cccc(OC)c3)cc(N3CCCc4ccccc4C3)n2)cc1", "result.number": 0.08}
{"molecule": "Nc1nc(-c2cccc3ccccc23)cc(N2CCCc3ccccc3C2)n1", "result.number": 0.08}
{"molecule": "COc1cccc(-c2cc(N3CCc4nc(C)sc4C3)nc(N)n2)c1", "result.number": 0.79}
{"molecule": "COc1cccc(-c2cc(N3CCCc4ccc(C)cc4C3)nc(C#N)n2)c1", "result.number": 0.86}
{"molecule": "COc1cccc(-c2cc(NCCc3ccc(OC)c(OC)c3)nc(N)n2)c1", "result.number": 0.15}
{"molecule": "COc1cccc(-c2cc(N3CCC(C)c4ccccc4C3)nc(N)n2)c1 (stereo unspecified)", "result.number": 0.11}
{"molecule": "Nc1nc(-c2ccc(OC3CCCCO3)cc2)cc(N2CCCc3ccccc3C2)n1 (stereo unspecified)", "result.number": 0.14}
{"molecule": "COc1cccc(-c2cc(N3CCCc4ccccc4C3)nc(NS(=O)(=O)c3ccc(F)cc3)n2)c1", "result.number": 0.36}
{"molecule": "COc1cccc(-c2nc(N)nc(N3CCCc4ccc(C)cc4C3)c2F)c1", "result.number": 0.01}
{"molecule": "COc1cccc(-c2cc(N3CCCc4ccc(OCc5ccccc5)cc4C3)nc(N)n2)c1", "result.number": 0.02}
{"molecule": "Nc1nc(-c2ccc(F)cc2)cc(N2CCCc3ccccc3C2)n1", "result.number": 0.18}

# credit: ChEMBL document CHEMBL5584296
